# target.desc: human CXCR3 (N-delta 4) (Homo sapiens, UniProt P49682)
# Construct: CD8 leader (N); Flag; expressed in transfected cells; membranes prepared
# assay.summary: Human CXCR3 (N-delta 4) Scintillation Proximity Assay (SPA), [125I] IP-10 binding to Ba/F3-hCXCR3 membranes
# condition: IC50 rating, Table 1; read-out: IC50
measure: IC50

Please review the entries below; each comes with its answer.
molecule="CC[C@H]1CN(c2nc(N)c(C(=O)NCCO)nc2Cl)CCN1C1CCN(C(Cc2nn[nH]n2)c2ccc(Cl)cc2)CC1 (some centres unmarked)" observed_value="> 100 nM"
molecule=CC[C@H]1CN(c2nc(N)c(C(=O)NCCNS(C)(=O)=O)nc2Cl)CCN1C1CCN(Cc2ccc(Cl)cc2)CC1 observed_value="< 25 nM"
molecule=CC[C@H]1CN(c2nc(N)c(C(=O)NCc3nccs3)nc2Cl)CCN1C1CCN(Cc2ccc(C#N)cc2)CC1 observed_value="> 100 nM"

Supply IC50 value. Item: CC[C@H]1CN(c2nc(N)c(C(=O)NCCO)nc2Cl)CCN1C1CCN([C@H](C(=O)O)c2ccc(Cl)cc2)CC1 > 100 nM

Supply IC50 value. Item: CC[C@H]1CN(c2nc(N)c(C(=O)NCCO)nc2Cl)CCN1C1CCN(Cc2ccc(Cl)cc2OCCNC(=O)NC2CCCCC2)CC1 < 25 nM

Supply IC50 value. Item: CC[C@H]1CN(c2ncc(C(=O)NC)nc2NC)CCN1C1CCN(C(=O)c2ccc(Cl)cc2)CC1 > 100 nM

Supply IC50 value. Item: CC[C@H]1CN(c2nc(N)c(C(=O)NCCO)nc2Cl)CCN1C1CCN([C@H](CO)c2ccc(C#N)cc2)CC1 < 25 nM

Supply IC50 value. Item: CC[C@H]1CN(c2nc(N)c(C(N)=O)nc2Cl)CCN1C1CCN(Cc2ccc(Cl)cc2C#N)CC1 < 25 nM

Supply IC50 value. Item: CC[C@H]1CN(c2nc(N)c(C(=O)NCCO)nc2Cl)CCN1C1CCN(Cc2ccc(Cl)cc2C(C)(C)O)CC1 < 25 nM

Supply IC50 value. Item: CC[C@H]1CN(c2nc(N)c(C(=O)NCCN/C(N)=N/C#N)nc2Cl)CCN1C1CCN(Cc2ccc(Cl)cc2C#N)CC1 > 100 nM

---

Listing of recorded IC50 by entry.
# target.desc: human CXCR3 (N-delta 4) (Homo sapiens, UniProt P49682)
# Construct: CD8 leader (N); Flag; expressed in transfected cells; membranes prepared
# Sequence (P49682 5-368 limits assumed): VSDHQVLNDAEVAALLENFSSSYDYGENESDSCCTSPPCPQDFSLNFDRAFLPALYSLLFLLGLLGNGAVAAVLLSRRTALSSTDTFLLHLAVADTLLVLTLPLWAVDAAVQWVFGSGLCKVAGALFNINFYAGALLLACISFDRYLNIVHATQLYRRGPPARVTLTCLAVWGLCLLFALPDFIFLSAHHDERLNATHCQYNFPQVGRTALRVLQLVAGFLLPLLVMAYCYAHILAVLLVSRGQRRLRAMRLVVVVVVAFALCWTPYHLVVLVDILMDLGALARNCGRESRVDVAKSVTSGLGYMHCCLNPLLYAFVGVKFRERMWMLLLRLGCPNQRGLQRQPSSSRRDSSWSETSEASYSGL
# assay.summary: Human CXCR3 (N-delta 4) Scintillation Proximity Assay (SPA), [125I] IP-10 binding to Ba/F3-hCXCR3 membranes
# condition: IC50 rating, Table 1; read-out: IC50
# Description: The inventive compounds can readily be evaluated to determine activity at the CXCR3 receptors by known methods, such as, for example, development of a human CXCR3 (N-delta 4) Binding Assay. Cloning and Expression of Human CXCR3 (N-delta 4): The DNA encoding human CXCR3 was cloned by PCR using human genomic DNA (Promega, Madison, Wis.) as a template. […]

Please review the entries below; each comes with its answer.
compound=CC[C@H]1CN(c2ncc(C(=O)NC3CC3)nc2C)CCN1C1CCN(C(=O)c2ccc(C)c(F)c2)CC1 observed_value="< 25 nM"
compound=CC[C@H]1CN(c2ncc(C(N)=O)nc2C)CCN1C1CCN([C@H](CO)c2ccc(Cl)cc2)CC1 observed_value="< 25 nM"

Quote human CXCR3 (N-delta 4) (Homo sapiens, UniProt P49682) IC50 for entry CC[C@H]1CN(c2ncc(C(N)=O)nc2C(F)(F)F)CCN1C1CCN(C(=O)c2ccc(Cl)cc2)CC1 . < 25 nM

Quote human CXCR3 (N-delta 4) (Homo sapiens, UniProt P49682) IC50 for entry CC[C@H]1CN(c2nc(N)c(C(=O)NC(=N)NC)nc2Cl)CCN1C1CCN(C(=O)c2ccc(F)c(F)c2)CC1 . < 25 nM

Quote human CXCR3 (N-delta 4) (Homo sapiens, UniProt P49682) IC50 for entry CC[C@H]1CN(c2nc(N)c(C(=O)NC(=N)NC)nc2Cl)CCN1C1CCN(Cc2ccc(Cl)c(F)c2)CC1 . < 25 nM

Quote human CXCR3 (N-delta 4) (Homo sapiens, UniProt P49682) IC50 for entry CC[C@H]1CN(c2nc(N)c(C(=O)NC)nc2Cl)CCN1C1CCN([C@H](CO)c2ccc(Cl)cc2)CC1 . 25 to 100 nM

---

# target.desc: human CXCR3 (N-delta 4) (Homo sapiens, UniProt P49682)
# Construct: CD8 leader (N); Flag; expressed in transfected cells; membranes prepared
# assay.summary: Human CXCR3 (N-delta 4) Scintillation Proximity Assay (SPA), [125I] IP-10 binding to Ba/F3-hCXCR3 membranes
# condition: IC50 rating, Table 1; read-out: IC50
measure: IC50

Please review the entries below; each comes with its answer.
compound_string=CC[C@H]1CN(c2ncc(C(=O)NC3CC3)nc2C)CCN1C1CCN([C@@H](C(=O)OC)c2ccc(F)c(F)c2)CC1 measure=IC50 observed_value="< 25 nM"
compound_string=CC[C@H]1CN(c2nc(N)c(C(=O)NCCNS(C)(=O)=O)nc2Cl)CCN1C1CCN(Cc2ccc(Cl)cc2C(=N)N)CC1 measure=IC50 observed_value="< 25 nM"
compound_string=CC[C@H]1CN(c2nc(N)c(C(=O)NN)nc2Cl)CCN1C1CCN(Cc2ccc(Cl)cc2)CC1 measure=IC50 observed_value="< 25 nM"
compound_string=CC[C@H]1CN(c2nc(N)c(C(=O)NCCNS(N)(=O)=O)nc2Cl)CCN1C1CCN([C@@H](C(=O)OC)c2ccc(Cl)cc2)CC1 measure=IC50 observed_value="25 to 100 nM"
compound_string=CC[C@H]1CN(c2nc(N)c(C(N)=O)nc2Cl)CCN1C1CCN(C(=O)c2ccc(Cl)cc2CN2Cc3ccccc3C2)CC1 measure=IC50 observed_value="> 100 nM"

Supply IC50 value. Item: CC[C@H]1CN(c2nc(N)c(C(=O)NCCO)nc2Cl)CCN1C1CCN(Cc2ccc(Cl)cc2OCCNS(=O)(=O)C(F)(F)F)CC1 < 25 nM

Supply IC50 value. Item: CC[C@H]1CN(c2nc(N)c(C(=O)NCCO)nc2Cl)CCN1C1CCN(Cc2ccc(Cl)cc2C2=NCCN2)CC1 < 25 nM

Supply IC50 value. Item: CCNC(=O)NCCc1cc(Cl)ccc1CN1CCC(N2CCN(c3nc(N)c(C(N)=O)nc3Cl)C[C@@H]2CC)CC1 > 100 nM

Supply IC50 value. Item: CC[C@H]1CN(c2nc(N)c(C(=O)NCCO)nc2Cl)CCN1C1CCN(Cc2ccc(Cl)cc2S(C)(=O)=O)CC1 < 25 nM

Supply IC50 value. Item: CC[C@H]1CN(c2nc(N)c(C(=O)NNC(=S)NC)nc2Cl)CCN1C1CCN(Cc2ccc(Cl)cc2)CC1 < 25 nM

Supply IC50 value. Item: CC[C@H]1CN(c2nc(N)c(C(=O)NCCO)nc2Cl)CCN1C1CCN(C(=O)c2ccc(F)c(F)c2N)CC1 25 to 100 nM

Supply IC50 value. Item: CC[C@H]1CN(c2nc(N)c(C(=O)NCCNS(=O)(=O)CC)nc2Cl)CCN1C1CCN(Cc2ccc(C#N)cc2)CC1 25 to 100 nM

Supply IC50 value. Item: CCNC(=O)NCCc1cc(Cl)ccc1CN1CCC(N2CCN(c3nc(N)c(C(=O)OC)nc3Cl)C[C@@H]2CC)CC1 25 to 100 nM

Supply IC50 value. Item: CC[C@H]1CN(c2nc(N)c(C(=O)NCCO)nc2Cl)CCN1C1CCN(Cc2ccc(Cl)cc2C(=O)NC)CC1 < 25 nM

---

# target.desc: human CXCR3 (N-delta 4) (Homo sapiens)
# Construct: CD8 leader (N); Flag; expressed in transfected cells; membranes prepared
# assay.summary: Human CXCR3 (N-delta 4) Scintillation Proximity Assay (SPA), [125I] IP-10 binding to Ba/F3-hCXCR3 membranes
# condition: IC50 rating, Table 1; read-out: IC50
pIC50: −log10 of the molar value.
Listing of recorded pIC50 by entry.

Supply pIC50 value. Item: CC[C@H]1CN(c2nc(N)c(C(N)=O)nc2Cl)CCN1C1CCN(Cc2ccc(Cl)c(OCCS(C)(=O)=O)c2)CC1 > 7.60

Supply pIC50 value. Item: CC[C@H]1CN(c2nc(N)c(C(N)=O)nc2Cl)CCN1C1CCN(C(CNS(C)(=O)=O)c2ccc(Cl)cc2)CC1 (stereo partly drawn) < 7.00

Supply pIC50 value. Item: CC[C@H]1CN(c2nc(N)c(C(=O)NCCO)nc2Cl)CCN1C1CCN(Cc2ccc(OC)c(F)c2)CC1 > 7.60

Hey, just so you know, these numbers are from patent US7868005B2.
